Numbers sourced from paper PMC6407917.

target: STK17A (Homo sapiens, UniProt Q9UEE5); assay: biochemical; set-up: species or system HEK293/K-562/placenta mixed human extract; Kinobeads chemoproteomic competition binding, quantified by TMT LC-MS/MS, dose response up to 20 uM
Sequence (Q9UEE5 whole entry): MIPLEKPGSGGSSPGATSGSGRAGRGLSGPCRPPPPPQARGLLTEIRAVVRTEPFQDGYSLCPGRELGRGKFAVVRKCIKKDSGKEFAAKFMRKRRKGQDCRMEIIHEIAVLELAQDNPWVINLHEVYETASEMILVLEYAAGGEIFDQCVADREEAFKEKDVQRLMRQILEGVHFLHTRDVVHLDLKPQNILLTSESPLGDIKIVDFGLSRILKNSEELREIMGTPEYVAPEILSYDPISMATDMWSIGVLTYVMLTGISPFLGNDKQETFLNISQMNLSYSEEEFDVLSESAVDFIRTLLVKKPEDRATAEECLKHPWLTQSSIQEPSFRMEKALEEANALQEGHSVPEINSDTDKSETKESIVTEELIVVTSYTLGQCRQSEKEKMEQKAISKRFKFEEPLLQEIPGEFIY
experimental.readout: IC50

INSERT INTO results (molecule, observed_measurement) VALUES
  ('COc1ccccc1-c1n[nH]c2nc(N[C@H]3CC[C@H](NS(=O)(=O)CCC(F)(F)F)CC3)nc(OC)c12 [compound 31]', '≥ 20 µM');

---

target: STK3 (Homo sapiens); assay: biochemical; design: species or system HEK293/K-562/placenta mixed human extract; Kinobeads chemoproteomic competition binding, quantified by TMT LC-MS/MS, dose response up to 20 uM
pIC50: −log10 of the molar value.
experimental.readout: pIC50

INSERT INTO results (compound, observed_measurement) VALUES
  ('COc1ccccc1-c1n[nH]c2nc(N[C@H]3CC[C@H](NS(=O)(=O)CCC(F)(F)F)CC3)nc(OC)c12 [compound 31]', '≤ 4.70');

---

biological target: STK3 (Homo sapiens, UniProt Q13188); assay: biochemical; set-up: species or system HEK293/K-562/placenta mixed human extract; Kinobeads chemoproteomic competition binding, quantified by TMT LC-MS/MS, dose response up to 20 uM
Sequence (Q13188 whole entry): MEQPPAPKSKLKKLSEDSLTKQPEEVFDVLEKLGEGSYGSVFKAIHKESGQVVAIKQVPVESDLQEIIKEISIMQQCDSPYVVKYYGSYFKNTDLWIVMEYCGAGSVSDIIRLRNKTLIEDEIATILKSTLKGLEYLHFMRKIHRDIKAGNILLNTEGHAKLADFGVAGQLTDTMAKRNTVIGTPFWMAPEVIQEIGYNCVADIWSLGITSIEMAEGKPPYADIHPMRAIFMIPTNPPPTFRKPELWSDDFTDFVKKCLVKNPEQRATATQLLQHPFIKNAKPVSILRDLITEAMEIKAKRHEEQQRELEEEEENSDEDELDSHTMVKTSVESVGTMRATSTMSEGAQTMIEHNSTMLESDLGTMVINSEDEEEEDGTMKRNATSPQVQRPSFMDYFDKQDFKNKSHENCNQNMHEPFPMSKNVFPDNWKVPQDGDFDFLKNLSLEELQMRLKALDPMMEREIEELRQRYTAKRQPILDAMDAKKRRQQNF
experimental.readout: IC50

INSERT INTO assay_data (compound, study_system, observed_measurement) VALUES
  ('COc1nc(N[C@H]2CC[C@H](NS(=O)(=O)CC(C)C)CC2)nc2[nH]nc(N3CCOC[C@H]3C)c12 [compound 39]', 'STK3 (Homo sapiens, UniProt Q13188)', '≥ 20 µM');

---

molecular target: CLK1 (Homo sapiens); assay: biochemical; set-up: species or system HEK293/K-562/placenta mixed human extract; Kinobeads chemoproteomic competition binding, quantified by TMT LC-MS/MS, dose response up to 20 uM
Sequence (P49759 whole entry): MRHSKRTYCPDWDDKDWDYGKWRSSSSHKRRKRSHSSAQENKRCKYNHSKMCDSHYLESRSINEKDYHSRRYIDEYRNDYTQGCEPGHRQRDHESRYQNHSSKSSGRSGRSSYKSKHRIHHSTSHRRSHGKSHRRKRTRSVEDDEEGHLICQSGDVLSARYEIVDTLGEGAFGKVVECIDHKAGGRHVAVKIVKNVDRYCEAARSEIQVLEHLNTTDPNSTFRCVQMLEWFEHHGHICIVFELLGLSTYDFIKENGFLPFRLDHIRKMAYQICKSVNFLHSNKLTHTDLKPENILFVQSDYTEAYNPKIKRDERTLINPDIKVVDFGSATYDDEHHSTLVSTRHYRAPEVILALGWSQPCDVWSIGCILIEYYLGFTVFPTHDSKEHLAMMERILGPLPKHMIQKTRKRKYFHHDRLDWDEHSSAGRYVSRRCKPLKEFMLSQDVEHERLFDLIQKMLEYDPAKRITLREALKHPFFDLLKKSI
pIC50: −log10 of the molar value.
experimental.readout: pIC50

INSERT INTO assay_data (smiles_str, experimental_readout, observed_measurement) VALUES
  ('COc1nc(N[C@H]2CC[C@H](NS(=O)(=O)CC(C)C)CC2)nc2[nH]nc(N3CCOC[C@H]3C)c12', 'pIC50', '≤ 4.70');

---

target: FN3K (Homo sapiens, UniProt Q9H479); experiment: biochemical; design: species or system HEK293/K-562/placenta mixed human extract; Kinobeads chemoproteomic competition binding, quantified by TMT LC-MS/MS, dose response up to 20 uM
Sequence (Q9H479 whole entry): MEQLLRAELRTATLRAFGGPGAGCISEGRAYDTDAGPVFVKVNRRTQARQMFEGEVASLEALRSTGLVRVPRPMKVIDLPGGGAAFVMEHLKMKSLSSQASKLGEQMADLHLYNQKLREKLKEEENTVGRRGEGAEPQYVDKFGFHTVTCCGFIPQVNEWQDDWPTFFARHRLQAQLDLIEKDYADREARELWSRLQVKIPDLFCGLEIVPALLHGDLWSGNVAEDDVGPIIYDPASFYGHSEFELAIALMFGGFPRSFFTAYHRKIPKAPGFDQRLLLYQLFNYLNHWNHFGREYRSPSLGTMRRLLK
pIC50: −log10 of the molar value.
experimental.readout: pIC50

INSERT INTO results (compound, observed_measurement) VALUES
  ('COc1nc(N[C@H]2CC[C@H](NS(=O)(=O)CC(C)C)CC2)nc2[nH]nc(N3CCOC[C@H]3C)c12 [compound 39]', '≤ 4.70');

---

molecular target: MASTL (Homo sapiens); experiment: biochemical; set-up: species or system HEK293/K-562/placenta mixed human extract; Kinobeads chemoproteomic competition binding, quantified by TMT LC-MS/MS, dose response up to 20 uM
Sequence (Q96GX5 whole entry): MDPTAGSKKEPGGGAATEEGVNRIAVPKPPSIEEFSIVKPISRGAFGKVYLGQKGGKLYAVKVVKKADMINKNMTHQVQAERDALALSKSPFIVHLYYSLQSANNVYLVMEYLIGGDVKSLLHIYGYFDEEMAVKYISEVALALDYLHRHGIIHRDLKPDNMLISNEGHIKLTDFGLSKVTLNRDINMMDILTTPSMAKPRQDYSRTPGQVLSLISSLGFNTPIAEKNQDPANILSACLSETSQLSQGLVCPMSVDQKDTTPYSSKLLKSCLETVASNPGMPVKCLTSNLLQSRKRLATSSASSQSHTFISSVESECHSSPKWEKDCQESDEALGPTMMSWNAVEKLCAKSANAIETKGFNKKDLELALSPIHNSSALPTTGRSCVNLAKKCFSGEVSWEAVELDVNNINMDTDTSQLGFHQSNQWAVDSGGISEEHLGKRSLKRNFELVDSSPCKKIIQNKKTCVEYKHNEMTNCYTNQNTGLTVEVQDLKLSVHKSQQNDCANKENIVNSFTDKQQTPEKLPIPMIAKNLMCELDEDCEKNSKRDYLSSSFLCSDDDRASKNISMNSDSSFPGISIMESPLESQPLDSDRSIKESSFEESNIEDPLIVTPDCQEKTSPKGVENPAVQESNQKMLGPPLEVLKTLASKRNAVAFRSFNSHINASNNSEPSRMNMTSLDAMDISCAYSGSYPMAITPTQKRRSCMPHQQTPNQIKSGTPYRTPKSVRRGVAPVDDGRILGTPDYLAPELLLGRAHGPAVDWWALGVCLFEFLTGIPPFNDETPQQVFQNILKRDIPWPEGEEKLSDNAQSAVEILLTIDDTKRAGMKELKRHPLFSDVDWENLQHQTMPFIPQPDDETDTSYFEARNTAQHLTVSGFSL
experimental.readout: IC50

INSERT INTO measurements (molecule, observed_measurement) VALUES
  ('COc1ccccc1-c1n[nH]c2nc(N[C@H]3CC[C@H](NS(=O)(=O)CCC(F)(F)F)CC3)nc(OC)c12 [compound 31]', '≥ 20 µM');
